system: RPMI-8226; experiment: NCI tumour cell line growth inhibition, 48 h
Calls of active or inactive are those of the source. No stated cut-off is given here; in the data, active = GI50 up to about 1.1 µM and inactive = higher.
Outcome field: choose from Y for active, N for inactive

Answered cases to consult:
Cc1ccc(N2C(=O)C(Cl)=C(Cl)C2=O)cc1 N
CN(C)c1ccc(/C=C(\NC(=O)c2ccccc2)C(=O)Nc2cccc(C(=O)NCCCO)c2)cc1 N
N#Cc1c(O)c(C=O)c(=O)n2c1[nH]c1ccccc12 N
CC(=O)c1c(C(F)(F)F)[n+]([O-])c2cc(Cl)c(Cl)cc2[n+]1[O-] Y

Query: Status in this test for O=C/C(=C1/C=Cc2cc([N+](=O)[O-])ccc2S1)c1ccccc1 ?
Result: N
